The measurements presented in this section are drawn from patent US20230405028A1.

- Test system: Human primary small intestinal epithelial cells (HSIEC); note: unit not given here
- Conditions Used: 5 μM; 48 h
# reported Cellular Metabolic Activity; entries follow
Readout Label: Cellular Metabolic Activity

# Molecule, Assayed Target, Meas Value
data = [
    ("O=C/C=C/c1ccccc1 [cinnamaldehyde, (2E)-3-phenylprop-2-enal]", "Human primary small intestinal epithelial cells (HSIEC)", 0.148),
    ("COc1cc(/C=C/C(=O)CC(=O)/C=C/c2ccc(O)c(OC)c2)ccc1O [curcumin]", "Human primary small intestinal epithelial cells (HSIEC)", 0.148),
    ("COc1cc(CNC(=O)CCCC/C=C/C(C)C)ccc1O [capsaicin]", "Human primary small intestinal epithelial cells (HSIEC)", 0.148),
    ("O=C(/C=C/C=C/c1ccc2c(c1)OCO2)N1CCCCC1 [piperine]", "Human primary small intestinal epithelial cells (HSIEC)", 0.170),
    ("CN(C)CCc1c[nH]c2cccc(OP(=O)(O)O)c12 [psilocybin, reference compound]", "Human primary small intestinal epithelial cells (HSIEC)", 0.186),
    ("Cc1ccc(C(C)C)cc1O [carvacrol]", "Human primary small intestinal epithelial cells (HSIEC)", 0.175),
]
